Reported values of self-cleavage for individual entries
B1: HDV Ribozyme (parent)
chain: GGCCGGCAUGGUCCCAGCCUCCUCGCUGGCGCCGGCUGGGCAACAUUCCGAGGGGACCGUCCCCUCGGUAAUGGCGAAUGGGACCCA

variants of: B1; test: self-cleavage, relative activity (ratio to wild type); higher = more cleavage; co-transcriptional
Recorded metric: self-cleavage

[[record]]
sequence_text = "GGCGGGCAUGGUCCCAGCUUCCUCGCUGGCGCCGGCUGGGCAACAUUCCGAGGGGACCGUCCCCUCGGUAAUGGCGAAUGGGACCCA [C4G C19U]"
assay_value = 0.0779

[[record]]
sequence_text = "GGCCGGCAUGGUCCCAGCCUCCUCGCUGGCGCCGGGUGGGCAACAUUCCGAGGGGACCGUCCCCUCGAUAAUGGCGAAUGGGACCCA [C36G G68A]"
assay_value = 0.233

[[record]]
sequence_text = "GGCCGGCAUGGUCCCAGCCUCCUCGCUGGCGCCGGCUGGGCAACAUUCCGAGGGGACCGUCGCCUCGGUAAUGGCUAAUGGGACCCA [C62G G76U]"
assay_value = 1.03

[[record]]
sequence_text = "GGCCGGCAUGGCUCCAGCCUCCUCGCUGGCGCCGGCUGGGCAACAUUCCGAGGGGACCGUCCCCUCGGUAAUGGCGAAUGGGACCCA [U12C C13U]"
assay_value = 0

[[record]]
sequence_text = "GGCGGGCAUGGUCCCAGCCUCCUCGCUGGCGCCGGCUGGGCAACAUUCCGAGGGGACCGUCCCCCCGGUAAUGGCGAAUGGGACCCA [C4G U65C]"
assay_value = 0.18

[[record]]
sequence_text = "GGCCGGCAUGGUCCCAGCCUCCUCGCUGCCGCCGGCUGGGCAACAUGCCGAGGGGACCGUCCCCUCGGUAAUGGCGAAUGGGACCCA [G29C U47G]"
assay_value = 0

[[record]]
sequence_text = "GGCCGGCAUGGUCCCAGCCUCCUCGCUGGCGCCAGCUGGGCAACAUUCCGAGGGGACCAUCCCCUCGGUAAUGGCGAAUGGGACCCA [G34A G59A]"
assay_value = 0.214

[[record]]
sequence_text = "GGCCGGCAUGGUCCCAGCCUCCUCGCUGGCGCCGGCUGGGCAACAUUCCAAGGUGACCGUCCCCUCGGUAAUGGCGAAUGGGACCCA [G50A G54U]"
assay_value = 0.852

[[record]]
sequence_text = "GGCCGGCAUGGUCACAGCCUCCUCGCUGGCGCCGGCUGGGCAACAUUCCGAGGGGACCGGCCCCUCGGUAAUGGCGAAUGGGACCCA [C14A U60G]"
assay_value = 0.684

[[record]]
sequence_text = "GGCCGGCAUGGUCCCAGCCUCAUUGCUGGCGCCGGCUGGGCAACAUUCCGAGGGGACCGUCCCCUCGGUAAUGGCGAAUGGGACCCA [C22A C24U]"
assay_value = 0.0361

[[record]]
sequence_text = "GGCCUGCAUGGUCCCAGCCUCCUCGCUGGCGCCGGCUAGGCAACAUUCCGAGGGGACCGUCCCCUCGGUAAUGGCGAAUGGGACCCA [G5U G38A]"
assay_value = 0.119

[[record]]
sequence_text = "GGCCGGCAUGGUCCCAGCCUCCUCGCUGGCGCCGGCUGGGCAACAUUCCGAGGGGACCGUCCCCUCGGUAAUGGCGAAUGUGUCCCA [G81U A83U]"
assay_value = 0.126

[[record]]
sequence_text = "GGCCGGCAUGGUCCCAGCCUAUUCGCUGGCGCCGGCUGGGCAACAUUCCGAGGGGACCGUCCCCUCGGUAAUGGCGAAUGGGACCCA [C21A C22U]"
assay_value = 0.138

[[record]]
sequence_text = "GGCCGGCAUGGUCCCAGCCUCCUCGCUGGGGCCGGCUGGGCAACAUCCCGAGGGGACCGUCCCCUCGGUAAUGGCGAAUGGGACCCA [C30G U47C]"
assay_value = 0.0941

[[record]]
sequence_text = "GGCCGGCAUGGUCCCAGCCUCCUCGCUGGCGCCGGCUGGGCAAGAUUCCGAGGGGACCGUCCCCUCGGUAAUGGCGUAUGGGACCCA [C44G A77U]"
assay_value = 0.0978

[[record]]
sequence_text = "GGCCGGCAUGGUCCCAGCCUCCUCGCUGGGGCUGGCUGGGCAACAUUCCGAGGGGACCGUCCCCUCGGUAAUGGCGAAUGGGACCCA [C30G C33U]"
assay_value = 0

[[record]]
sequence_text = "GGCCGGCAUGGUCCCAGCCUCCUCGCUGACGCCGGCUGGGCAACAUUCCGAGGGGACCGUCCACUCGGUAAUGGCGAAUGGGACCCA [G29A C63A]"
assay_value = 0.147

[[record]]
sequence_text = "GGCCGGCAUGUUCCAAGCCUCCUCGCUGGCGCCGGCUGGGCAACAUUCCGAGGGGACCGUCCCCUCGGUAAUGGCGAAUGGGACCCA [G11U C15A]"
assay_value = 0.155

[[record]]
sequence_text = "GGCCGGCAUGGUCCCAGCCUCCUCGCUGGCGCCGGCUGGGCAACGUUCCGAGGGGACCGUCCCCUCGGUAAUGGCGAAUGGGACCCU [A45G A87U]"
assay_value = 0.911

[[record]]
sequence_text = "GGCCGGCAUGGUCCCCGCCUCCUCGCCGGCGCCGGCUGGGCAACAUUCCGAGGGGACCGUCCCCUCGGUAAUGGCGAAUGGGACCCA [A16C U27C]"
assay_value = 0.293

[[record]]
sequence_text = "GGCCGGCAUGGUCCCAGCCUCCUCGCUGGCGCCGGCUGGGCAACAUUCCGAGGGGGCCGUCCCCUAGGUAAUGGCGAAUGGGACCCA [A56G C66A]"
assay_value = 0.909

[[record]]
sequence_text = "GGCCGGCAUGGUCCCAGCCUCCUCGCUGGCGCCGGCUGGGCAACAUUCCGAGGGGAACGUCCCCUCGGUAAUGGCGAGUGGGACCCA [C57A A78G]"
assay_value = 0.63

